experimental system: Aurora kinase A (Homo sapiens, UniProt O14965)
Sequence (O14965 whole entry): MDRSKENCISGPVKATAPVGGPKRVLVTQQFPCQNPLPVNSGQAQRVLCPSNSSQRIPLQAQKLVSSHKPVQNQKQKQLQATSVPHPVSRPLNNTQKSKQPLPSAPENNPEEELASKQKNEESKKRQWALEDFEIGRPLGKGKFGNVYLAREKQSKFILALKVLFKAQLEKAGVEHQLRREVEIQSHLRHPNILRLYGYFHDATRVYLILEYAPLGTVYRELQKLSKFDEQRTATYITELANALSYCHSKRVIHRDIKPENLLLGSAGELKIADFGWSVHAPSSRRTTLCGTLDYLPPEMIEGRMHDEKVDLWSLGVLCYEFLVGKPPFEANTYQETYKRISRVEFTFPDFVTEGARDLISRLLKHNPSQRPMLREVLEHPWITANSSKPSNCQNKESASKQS
protocol summary: Inhibition of GST-tagged Aurora A kinase expressed in insect cells assessed as inhibition of [33P]gamma-ATP incorporation in substrate after 60 mins by scintillation counting
test conditions: read-out: IC50
pIC50: −log10 of the molar value.
endpoint label: pIC50

Below, each entry is followed by its recorded pIC50 result.
{"columns": ["item smiles", "pIC50"],
 "data": [
  ["O=S(=O)(c1ccccc1)c1cnc2cc(-c3ccc(Cl)cc3)nn2c1-c1ccccc1", 6.92],
  ["COc1cccc2c1C(=O)c1c(O)c3c(c(O)c1C2=O)C[C@@](O)(C(=O)CO)C[C@@H]3O[C@H]1C[C@H](N)[C@H](O)[C@H](C)O1", 7.40],
  ["O=S(=O)(c1ccccc1)c1cnc2c(Br)c(-c3ccccc3)nn2c1-c1ccccc1", 7.41]
]}

1. O=S(=O)(c1ccccc1)c1cnc2cc(-c3ccccc3)nn2c1-c1ccccc1
2. O=S(=O)(c1ccccc1)c1cnc2ncnn2c1-c1ccc(Cl)cc1
3. Cc1cc2ncc(S(=O)(=O)c3ccccc3)c(-c3ccccc3)n2n1
4. COc1ccc(-c2cc3ncc(S(=O)(=O)c4ccccc4)c(-c4ccccc4)n3n2)cc1
Put the entries in order of pIC50, starting with the largest number. API: response body holds the labels in the requested order.
4, 1, 3, 2
